# Tested on: MCF-7/HYOR cells
# Measurement Notes: Tumor cell proliferation assay, M. hyorhinis-infected MCF-7 cells
# Assay type: cell-based, human
# Condition Context: Homo sapiens, MCF7, read-out: IC50 MCF-7/HYOR +TPi (10 μM)
pIC50: −log10 of the molar value.
Metric: pIC50

1. O=c1[nH]c(=O)n([C@H]2C[C@H](O)[C@@H](CO)O2)cc1F [FdUrd, 5-fluoro-2′-deoxyuridine]	8.52

---

# Test system: M. hyorhinis TP
# Measurement Notes: TP activity in the medium of MCF-7/HYOR cell cultures (HPLC, conversion of nucleoside to free base)
# Type: biochemical, Mycoplasma hyorhinis
# Condition Context: 16 hours; 200 μM substrate; 37° C.
Metric: Percent conversion of nucleoside to the free pyrimidine base in MCF-7/HYOR medium (%)

1) Cc1cn([C@H]2C[C@H](O)[C@@H](CO)O2)c(=O)[nH]c1=O [dThd, thymidine]	97
2) O=c1[nH]c(=O)n([C@H]2C[C@H](O)[C@@H](CO)O2)cc1C(F)(F)F [TFT, 5-trifluorothymidine]	55
3) O=c1[nH]c(=O)n([C@H]2C[C@H](O)[C@@H](CO)O2)cc1F [FdUrd, 5-fluoro-2′-deoxyuridine]	77
4) C[C@H]1O[C@@H](n2cc(F)c(=O)[nH]c2=O)[C@H](O)[C@@H]1O [5′DFUR, 5-fluoro-5′-deoxyuridine]	22

---

# Measured Target: E. coli TP (Escherichia coli, UniProt P07650)
# Construct: purchased Sigma
# Sequence (P07650 whole entry): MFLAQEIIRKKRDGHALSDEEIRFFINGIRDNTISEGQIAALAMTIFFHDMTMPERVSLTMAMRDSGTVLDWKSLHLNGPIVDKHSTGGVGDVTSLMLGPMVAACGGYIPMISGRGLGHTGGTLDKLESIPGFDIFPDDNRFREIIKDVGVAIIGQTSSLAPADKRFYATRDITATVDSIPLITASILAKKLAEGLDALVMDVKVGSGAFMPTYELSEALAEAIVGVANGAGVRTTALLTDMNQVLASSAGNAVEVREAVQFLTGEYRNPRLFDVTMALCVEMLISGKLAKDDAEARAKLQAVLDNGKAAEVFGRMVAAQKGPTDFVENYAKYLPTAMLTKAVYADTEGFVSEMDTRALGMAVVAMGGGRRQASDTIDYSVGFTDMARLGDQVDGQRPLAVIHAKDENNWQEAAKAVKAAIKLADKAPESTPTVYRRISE
# Measurement Notes: Enzyme activity assay with recombinant E. coli TP (positive control)
# Format: biochemical
# Condition Context: 2 hours; 0.025 U TP; 200 μM substrate
Overview of recorded Percent conversion of nucleoside to the free pyrimidine base, recombinant E. coli TP for various compounds
Metric: Percent conversion of nucleoside to the free pyrimidine base, recombinant E. coli TP (%)

1. O=c1[nH]c(=O)n([C@H]2C[C@H](O)[C@@H](CO)O2)cc1F	57
2. C[C@H]1O[C@@H](n2cc(F)c(=O)[nH]c2=O)[C@H](O)[C@@H]1O	26
3. Cc1cn([C@H]2C[C@H](O)[C@@H](CO)O2)c(=O)[nH]c1=O	82
4. O=c1[nH]c(=O)n([C@H]2C[C@H](O)[C@@H](CO)O2)cc1C(F)(F)F	48
